The reported numbers originate from ChEMBL document CHEMBL2034950.

Measured pIC50 of individual entries
System: Plasmodium falciparum
Assay: Antimalarial activity against chloroquine-resistant Plasmodium falciparum W2 infected in O-positive human RBC assessed as [3H]-hypoxanthine incorporation after 48 hrs by scintillation counting in presence of BSA
Format: functional, organism-based
pIC50: −log10 of the molar value.

{"COMPOUND": "CCCCCCCCCCCCC[C@H](O)C[C@H](O)C1(N)CC1 (racemic)", "pIC50": 5.00}
{"COMPOUND": "CCCCCCCCCCCCC[C@@H](O)C[C@H](O)C1(N)CC1 (racemic)", "pIC50": 5.14}
{"COMPOUND": "CCCCCCCCCCCCC[C@@H](O)C[C@H](O)C(C)(C)N (racemic)", "pIC50": 5.13}
{"COMPOUND": "CCCCCCCCCCCCC[C@H](O)C[C@H](O)[C@H](C)N", "pIC50": 5.04}
{"COMPOUND": "O[C@@H](c1cc(C(F)(F)F)nc2c(C(F)(F)F)cccc12)[C@H]1CCCCN1 (relative stereo) [(S,R)-MEFLOQUINE]", "pIC50": 9.40}
{"COMPOUND": "CCCCCCCCCCCCC[C@H](O)C[C@H](O)C(C)(C)N (racemic)", "pIC50": 5.33}
{"COMPOUND": "CCCCCCCCCCCCC[C@H](O)C[C@H](O)C(C)(C)NC (racemic)", "pIC50": 6.60}
{"COMPOUND": "CCCCCCCCCCCCCC(O)CC(=O)C(C)(C)N (racemic)", "pIC50": 5.59}
{"COMPOUND": "CCCCCCCCCCCCCC(O)C/C(=N\\O)C(C)(C)N (racemic)", "pIC50": 5.00}
{"COMPOUND": "CCCCCCCCCCCCC[C@H](O)C[C@H](O)[C@H](C)NC", "pIC50": 6.05}
